Where do these numbers come from? They come from patent US20250340608A1.

# Measured On: T1, human ferroportin (SLC40A1) fused in frame with GFP, stably expressed in HEK293 cells (human, UniProt Q9NP59 1-571)
# T1 sequence (looked up): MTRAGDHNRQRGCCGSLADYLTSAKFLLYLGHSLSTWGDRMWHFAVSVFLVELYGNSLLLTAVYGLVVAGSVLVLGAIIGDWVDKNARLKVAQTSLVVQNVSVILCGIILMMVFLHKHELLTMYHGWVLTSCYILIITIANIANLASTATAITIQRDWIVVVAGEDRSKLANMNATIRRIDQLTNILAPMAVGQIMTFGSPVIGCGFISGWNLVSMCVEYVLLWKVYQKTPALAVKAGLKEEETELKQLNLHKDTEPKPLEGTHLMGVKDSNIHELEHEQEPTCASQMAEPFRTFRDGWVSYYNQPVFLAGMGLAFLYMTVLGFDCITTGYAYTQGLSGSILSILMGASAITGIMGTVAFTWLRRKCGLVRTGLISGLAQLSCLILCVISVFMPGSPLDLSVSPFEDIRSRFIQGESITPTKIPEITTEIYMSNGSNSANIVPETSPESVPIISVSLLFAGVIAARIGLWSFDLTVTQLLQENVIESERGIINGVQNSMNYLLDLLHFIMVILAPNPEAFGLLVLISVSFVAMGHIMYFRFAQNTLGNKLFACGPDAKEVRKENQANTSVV
# Assay Procedure: cell-based or functional assay
For each record, write down the corresponding EC50 (nM) (n = 3).

Reference set (5 entries):
# Binder, EC50 (nM) (n = 3)
data = [
    ("H-DTHFPCILK-NH2 (also: homodimer via disulfide between Cys6 of each monomer) [Compound 322]", "> 300 nM"),
    ("H-DTHFPCIEK-NH2 [Compound 310]", "> 1000 nM"),
    ("H-DTHFPCIIR-NH2 (also: homodimer via disulfide between Cys6 of each monomer) [Compound 319]", "268 nM"),
    ("H-DTHFPCIF-NH2 (also: homodimer via disulfide between Cys6 of each monomer) [Compound 312]", "> 300 nM"),
    ("H-DTHFPCIKFF-NH2 (also: homodimer via disulfide between Cys6 of each monomer) [Compound 314]", "130 nM"),
]

Now let's try a different one.
Query: Report EC50 (nM) (n = 3) for H-DTHFPCIIK-NH2 [Compound 304] please.
Reply: > 1000 nM
